The measurements presented in this section are drawn from patent US20160333419A1.

test system: NCI-H520; assay: OncoPanel cytotoxicity assay; assay type: cell-based; details: Homo sapiens, 72 hour incubation
test.readout: IC50

CC1(C)CCC2(CC1)N[C@@H](C(=O)N[C@@H]1CC[C@@H](C(N)=O)OC1)[C@H](c1ccnc(Cl)c1F)[C@]21C(=O)Nc2cc(Cl)ccc21 [Compound B]; > 10 µM

Read the next record carefully.
**Q:** What value of IC50 has been recorded for this entry: CC[C@@H]1CNC2(CC2)CN1C(=O)[C@@H]1C[C@@H](F)CN1C(=O)C1=C(C(C)C)N2C(=N[C@@](C)(c3ccc(Cl)nc3)[C@H]2c2ccc(Cl)c(F)c2)S1 [Compound A]
**A:** > 40 µM

====

System: SK-MEL-28
Test: OncoPanel cytotoxicity assay
Format: cell-based
Settings: Homo sapiens, 72 hour incubation
Procedure: Cells were grown in RPMI 1640, 10% FBS, 2 mM L-alanyl-L-Glutamine, 1 mM Na Pyruvate, or a special medium in a humidified atmosphere of 5% CO2 at 37° C. Cells were seeded into 384-well plates and incubated in a humidified atmosphere of 5% CO2 at 37° C. Test compounds were added 24 hours post cell seeding. At the same time, a time zero, untreated cell plate was generated as a control. […] Cell proliferation was measured by the signal intensity of the incorporated nuclear dye. […]
Please go through the items and note down their IC50.

CC1(C)CCC2(CC1)N[C@@H](C(=O)N[C@@H]1CC[C@@H](C(N)=O)OC1)[C@H](c1ccnc(Cl)c1F)[C@]21C(=O)Nc2cc(Cl)ccc21 [Compound B]; > 10 µM

Read the next record carefully.
**Q:** What value of IC50 has been recorded for this entry: CC[C@@H]1CNC2(CC2)CN1C(=O)[C@@H]1C[C@@H](F)CN1C(=O)C1=C(C(C)C)N2C(=N[C@@](C)(c3ccc(Cl)nc3)[C@H]2c2ccc(Cl)c(F)c2)S1 [Compound A]
**A:** > 40 µM

====

Test system: DMS273
Assay: OncoPanel cytotoxicity assay
Type: cell-based
Settings: Homo sapiens, DMS-273, 72 hour incubation
Method: Cells were grown in RPMI 1640, 10% FBS, 2 mM L-alanyl-L-Glutamine, 1 mM Na Pyruvate, or a special medium in a humidified atmosphere of 5% CO2 at 37° C. Cells were seeded into 384-well plates and incubated in a humidified atmosphere of 5% CO2 at 37° C. Test compounds were added 24 hours post cell seeding. At the same time, a time zero, untreated cell plate was generated as a control. […] Cell proliferation was measured by the signal intensity of the incorporated nuclear dye. […]
test.readout: IC50 (µM)
One number for each entry, in µM.

**Q:** What value of IC50 has been recorded for this entry: CC1(C)CCC2(CC1)N[C@@H](C(=O)N[C@@H]1CC[C@@H](C(N)=O)OC1)[C@H](c1ccnc(Cl)c1F)[C@]21C(=O)Nc2cc(Cl)ccc21 [Compound B]
**A:** 9.08

====

test system: KATO III; assay: OncoPanel cytotoxicity assay; type: cell-based; settings: Homo sapiens, 72 hour incubation
test.readout: pIC50
Give bare numbers, as −log10 of the molar value.

**Q:** Look up pIC50 with KATO III for this compound: CC[C@@H]1CNC2(CC2)CN1C(=O)[C@@H]1C[C@@H](F)CN1C(=O)C1=C(C(C)C)N2C(=N[C@@](C)(c3ccc(Cl)nc3)[C@H]2c2ccc(Cl)c(F)c2)S1
**A:** 4.44
